Target: T1, FZD5 CRD (Homo sapiens, UniProt Q13467)
T1 construct: K29-T156; GPI anchor signal (C); expressed in transfected cells; host or cells: CHO cells, lentiviral pLenti-puro
T1 sequence (Q13467 29-156): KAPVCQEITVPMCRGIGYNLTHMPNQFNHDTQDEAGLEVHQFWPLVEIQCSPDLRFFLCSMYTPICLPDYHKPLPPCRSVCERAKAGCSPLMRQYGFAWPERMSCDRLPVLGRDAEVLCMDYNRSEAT
Test: Immunofluorescence of anti-FZD5 Fab binding to CHO cells overexpressing Frizzled CRD
Design: key: −: no binding; +: very weak binder; ++: weak binder; +++: good binder; ++++: very good binder
QUANTITY NAME: Immunofluorescence binding, Frizzled CRD overexpressed on CHO cells: FZD5

MOLECULE	REPORTED VALUE
Fab-2935: anti-FZD5 Fab with antibody variable region Fv-2935; CDR SEQ ID NOs: 35, 36, 74, 111, 150, 178 (antibody, V domains shown) VH: EVQLVESGGGLVQPGGSLRLSCAASGFNIYYYYIHWVRQAPGKGLEWVASIYPSSGSTSYADSVKGRFTISADTSKNTAYLQMNSLRAEDTAVYYCARAAFDYWGQGTLVTVSS VL: DIQMTQSPSSLSASVGDRVTITCRASQSVSSAVAWYQQKPGKAPKLLIYSASSLYSGVPSRFSGSRSGTDFTLTISSLQPEDFATYYCQQWYGGYALITFGQGTKVEIK	++++
Fab-2905: anti-FZD5 Fab with antibody variable region Fv-2905; CDR SEQ ID NOs: 35, 36, 44, 83, 120, 157 (antibody, V domains shown) VH: EVQLVESGGGLVQPGGSLRLSCAASGFNLSYYYMHWVRQAPGKGLEWVASIYSSYSYTSYADSVKGRFTISADTSKNTAYLQMNSLRAEDTAVYYCARSGYALDYWGQGTLVTVSS VL: DIQMTQSPSSLSASVGDRVTITCRASQSVSSAVAWYQQKPGKAPKLLIYSASSLYSGVPSRFSGSRSGTDFTLTISSLQPEDFATYYCQQSSWYYGYPFTFGQGTKVEIK	+
Fab-2909: anti-FZD5 Fab with antibody variable region Fv-2909; CDR SEQ ID NOs: 35, 36, 48, 87, 124, 161 (antibody, V domains shown) VH: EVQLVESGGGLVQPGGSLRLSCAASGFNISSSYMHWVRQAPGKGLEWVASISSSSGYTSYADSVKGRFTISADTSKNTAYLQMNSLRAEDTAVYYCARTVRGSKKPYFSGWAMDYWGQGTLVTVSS VL: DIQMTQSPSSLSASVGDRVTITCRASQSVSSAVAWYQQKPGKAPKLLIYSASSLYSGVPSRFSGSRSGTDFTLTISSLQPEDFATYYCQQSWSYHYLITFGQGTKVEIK	+++
Fab-2933: anti-FZD5 Fab with antibody variable region Fv-2933; CDR SEQ ID NOs: 35, 36, 72, 109, 148, 177 (antibody, V domains shown) VH: EVQLVESGGGLVQPGGSLRLSCAASGFNLYSSYMHWVRQAPGKGLEWVASIYSSYGYTSYADSVKGRFTISADTSKNTAYLQMNSLRAEDTAVYYCARTVRGSKKPYFSGWAMDYWGQGTLVTVSS VL: DIQMTQSPSSLSASVGDRVTITCRASQSVSSAVAWYQQKPGKAPKLLIYSASSLYSGVPSRFSGSRSGTDFTLTISSLQPEDFATYYCQQFWWYASWLFTFGQGTKVEIK	++++
